Overview of recorded AUC(0-t) for various molecules
ASSAY DETAILS: Pharmacokinetic study in atherosclerosis (AS) model ApoE−/− mice after oral administration of SMYAD
Assay type: in vivo, mouse
TEST SETTINGS: male, ApoE−/− on a C57BL/6 background, mouse, in vivo, po, 35 g/kg/day
Hi, when you answer, please include the unit after the number. Thanks!

1. O=C1C[C@@H](c2ccc(O[C@@H]3O[C@H](CO)[C@@H](O)[C@H](O)[C@H]3O)cc2)Oc2cc(O)ccc21 :: 408 ng·h/mL

// next item, AUC(0-t) requested
QUERY: Dear colleague, I am looking for the recorded AUC(0-t) of the following molecule: C=C[C@H]1[C@H](O[C@@H]2O[C@H](CO)[C@@H](O)[C@H](O)[C@H]2O)OC=C2C(=O)OCC[C@H]21 [Sweroside, sweroside]
RESULT: 7500 ng·h/mL

###

ASSAY DETAILS: Pharmacokinetic study in atherosclerosis (AS) model ApoE−/− mice after oral administration of SMYAD
Format: in vivo, mouse
TEST SETTINGS: male, ApoE−/− on a C57BL/6 background, mouse, po, 35 g/kg/day; AS mice, plasma, SMYAD intragastric 35 g/kg/d for seven days, mean ± SD, n = 5; read-out: AUC0–∞
QUANTITY NAME: AUC(0-inf)
Kindly report the value followed by its unit.

Look over these answered cases.
1) C=C[C@H]1[C@H](O[C@@H]2O[C@H](CO)[C@@H](O)[C@H](O)[C@H]2O)OC=C2C(=O)OCC[C@]21O :: 7240 ng·h/mL
2) O=C(/C=C/c1ccc(O)cc1)c1ccc(O)cc1O :: 654 ng·h/mL

QUERY: Recorded AUC(0-inf) of `O=C(/C=C/c1ccc(O)c(O)c1)O[C@@H]1C[C@](O)(C(=O)O)C[C@@H](O)[C@H]1O` , please.
RESULT: 2640 ng·h/mL

QUERY: Could you tell me which AUC(0-inf) is on file for COc1ccc(CCO[C@@H]2O[C@H](CO[C@@H]3OC[C@H](O)[C@H](O)[C@H]3O)[C@@H](OC(=O)/C=C/c3ccc(O)c(OC)c3)[C@H](O[C@@H]3O[C@@H](C)[C@H](O)[C@@H](O)[C@H]3O)[C@H]2O)cc1O [Angoroside C, angoroside C] ?
RESULT: 1890 ng·h/mL

###

ASSAY DETAILS: Pharmacokinetic study in normal control (NC) mice after oral administration of SMYAD
Format: in vivo, mouse
TEST SETTINGS: male, C57BL/6J, mouse, in vivo, po, 35 g/kg/day
QUANTITY NAME: half-life (min)
A number alone suffices; assume min.

1) C=C[C@H]1[C@H](O[C@@H]2O[C@H](CO)[C@@H](O)[C@H](O)[C@H]2O)OC=C2C(=O)OCC[C@H]21 [Sweroside, sweroside] :: 229

We now examine a further molecule.
QUERY: Param item = `O=C1C[C@@H](c2ccc(O[C@@H]3O[C@H](CO)[C@@H](O)[C@H](O)[C@H]3O)cc2)Oc2cc(O)ccc21` ; retrieve measured half-life.
RESULT: 1020

###

ASSAY DETAILS: Pharmacokinetic study in atherosclerosis (AS) model ApoE−/− mice after oral administration of SMYAD
Format: in vivo, mouse
TEST SETTINGS: AS mice, plasma, SMYAD intragastric 35 g/kg/d for seven days, mean ± SD, n = 5
Below: a set of entries, each annotated with reported CLz/F.
Express it in L/h/mg; write the number only.

1) COc1ccc(CCO[C@@H]2O[C@H](CO[C@@H]3OC[C@H](O)[C@H](O)[C@H]3O)[C@@H](OC(=O)/C=C/c3ccc(O)c(OC)c3)[C@H](O[C@@H]3O[C@@H](C)[C@H](O)[C@@H](O)[C@H]3O)[C@H]2O)cc1O [Angoroside C, angoroside C] :: 18.79

Proceed to the following item.
QUERY: Suppose we examine the compound `C=C[C@H]1[C@H](O[C@@H]2O[C@H](CO)[C@@H](O)[C@H](O)[C@H]2O)OC=C2C(=O)OCC[C@]21O` ; what CLz/F value has been reported?
RESULT: 5.70
